Tested on: HIV-1 RT (Human immunodeficiency virus type 1 group M subtype B, UniProt P04585)
Protocol summary: Km of HIV-1 RT for dNTP, 600-base globin mRNA template
Assay type: biochemical
Condition info: 600-base globin mRNA as template
Item-by-item account of Km
Observed property: Km

cpd_smiles=Nc1nc2c(ncn2[C@H]2C[C@H](O)[C@@H](COP(=O)(O)OP(=O)(O)OP(=O)(O)O)O2)c(=O)[nH]1 result="3.9 µM"
cpd_smiles=Nc1ccn([C@H]2C[C@H](O)[C@@H](COP(=O)(O)OP(=O)(O)OP(=O)(O)O)O2)c(=O)n1 result="3.8 µM"
cpd_smiles=Cc1cn([C@H]2C[C@H](O)[C@@H](COP(=O)(O)OP(=O)(O)OP(=O)(O)O)O2)c(=O)[nH]c1=O result="4 µM"
cpd_smiles=Nc1ncnc2c1ncn2[C@H]1C[C@H](O)[C@@H](COP(=O)(O)OP(=O)(O)OP(=O)(O)O)O1 result="2.6 µM"

These entries and their values trace back to patent US20060154892A1.
